Cited source: PubChem BioAssay (NCI)

growth values for the compounds below.
# System: K-562 leukemia
# experimental-details: NCI-60 one-dose screen, 48 h (100 = growth as untreated, 0 = no growth, -100 = all killed)
# condition-summary: 10 µM
This is part of a sample that, as a whole, favours compounds with a hit. Of some 83,000 tested, about 20% had one in any assay.
Dear colleague, please return just the value in %, with no unit written.

{"compound": "Cc1ccc(N=Nc2ccccc2)cc1", "test-system": "K-562 leukemia", "reported-result": 112}
{"compound": "CN(C)CCC1(c2ccccc2)CCN(C)C1=O (configuration not stated)", "test-system": "K-562 leukemia", "reported-result": 95.2}
{"compound": "COc1ccc(C(=O)N2C=Cc3ccccc3C2C#N)cc1 (configuration not stated)", "test-system": "K-562 leukemia", "reported-result": 67.4}
{"compound": "CCOC(=O)c1cc(C(=O)c2cc(OC)cc(OC)c2)n2ncc3ccccc3c12", "test-system": "K-562 leukemia", "reported-result": 5.75}
{"compound": "CCCc1cn(CC(=O)Nc2nc3ccccc3s2)nn1", "test-system": "K-562 leukemia", "reported-result": 106}

--- query ---
Give the measured growth for "CCOC(=O)c1cc(C(=O)c2cc(OC)c(OC)c(OC)c2)n2c1ccc1c3cccnc3ccc12"
12.9
